Hello, the source for this data is patent US20250154288A1, in case you need it.

Exercise: for every item that follows, state its recorded Emax at 100 µM.
molecular target: human alpha1 nicotinic acetylcholine (nACh) receptor (Homo sapiens, UniProt P02708+Q07001); test: Nicotinic Acetylcholine Receptor Antagonism Assay (IONFlux automated patch clamp); format: cell-based; conditions: maximum percentage antagonism at Maximum Concentration of Compound Tested 100 μM; read-out: Maximum Response (%)
Sequence (P02708 21-457): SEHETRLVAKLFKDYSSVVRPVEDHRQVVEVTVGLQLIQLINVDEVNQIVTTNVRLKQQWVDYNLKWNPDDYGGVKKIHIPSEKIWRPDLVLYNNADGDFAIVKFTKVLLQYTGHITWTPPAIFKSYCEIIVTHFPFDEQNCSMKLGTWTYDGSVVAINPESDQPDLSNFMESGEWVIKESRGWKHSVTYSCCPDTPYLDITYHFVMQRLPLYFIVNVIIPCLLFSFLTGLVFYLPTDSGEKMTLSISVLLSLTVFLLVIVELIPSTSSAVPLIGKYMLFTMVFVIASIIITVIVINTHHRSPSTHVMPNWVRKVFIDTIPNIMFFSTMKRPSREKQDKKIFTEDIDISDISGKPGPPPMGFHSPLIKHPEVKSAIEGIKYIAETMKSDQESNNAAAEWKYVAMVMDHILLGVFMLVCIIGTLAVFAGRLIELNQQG
Sequence (P11230 24-501 partner): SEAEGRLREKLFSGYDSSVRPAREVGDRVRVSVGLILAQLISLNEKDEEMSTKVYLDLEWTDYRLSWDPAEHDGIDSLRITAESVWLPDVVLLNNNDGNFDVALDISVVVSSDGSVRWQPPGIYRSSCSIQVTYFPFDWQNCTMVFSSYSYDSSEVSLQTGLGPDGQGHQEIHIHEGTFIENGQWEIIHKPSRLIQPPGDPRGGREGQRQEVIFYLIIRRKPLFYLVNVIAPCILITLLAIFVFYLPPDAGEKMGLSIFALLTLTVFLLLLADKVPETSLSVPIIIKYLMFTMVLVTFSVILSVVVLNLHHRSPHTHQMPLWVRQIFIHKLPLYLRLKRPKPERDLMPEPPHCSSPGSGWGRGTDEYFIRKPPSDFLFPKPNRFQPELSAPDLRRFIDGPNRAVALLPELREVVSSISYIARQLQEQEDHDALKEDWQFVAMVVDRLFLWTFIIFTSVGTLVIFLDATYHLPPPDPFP
Sequence (Q07001 22-517): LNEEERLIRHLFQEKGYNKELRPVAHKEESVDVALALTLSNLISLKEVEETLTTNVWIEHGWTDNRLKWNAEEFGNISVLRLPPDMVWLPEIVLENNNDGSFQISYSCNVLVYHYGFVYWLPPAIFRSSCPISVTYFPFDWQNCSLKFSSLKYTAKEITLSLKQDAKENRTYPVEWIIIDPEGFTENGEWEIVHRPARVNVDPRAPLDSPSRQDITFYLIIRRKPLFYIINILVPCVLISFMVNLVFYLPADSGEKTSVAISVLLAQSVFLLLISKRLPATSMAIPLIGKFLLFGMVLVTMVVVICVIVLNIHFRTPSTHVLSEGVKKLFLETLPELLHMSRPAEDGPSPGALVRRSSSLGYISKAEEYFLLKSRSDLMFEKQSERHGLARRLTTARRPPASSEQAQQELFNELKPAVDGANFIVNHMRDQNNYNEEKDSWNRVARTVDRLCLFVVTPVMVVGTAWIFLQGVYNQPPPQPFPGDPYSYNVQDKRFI
Numbers only, in %.

Structure Smiles: CO[C@@H]1COCC[C@@H]1N[C@@H]1CC[C@](CCCNC(=O)[C@H]2CC[C@@H](NC(=O)CCCC(=O)NCCCC(=O)NCCCNC(=O)[C@H]3CC(=O)N(C)[C@@H]3c3cccnc3)CC2)(C(=O)N2CCc3ncc(C(F)(F)F)cc3C2)C1
Target Or System: human alpha1 nicotinic acetylcholine (nACh) receptor (Homo sapiens, UniProt P02708+Q07001)
Reported Measurement: 64

Structure Smiles: CO[C@@H]1COCC[C@@H]1N[C@@H]1CC[C@](CCCNC(=O)CCOCCOCCOCCOCCOCCOCCOCCOCCOCCOCCOCCOCCNC(=O)[C@H]2CC(=O)N(C)[C@@H]2c2cccnc2)(C(=O)N2CCc3ncc(C(F)(F)F)cc3C2)C1
Target Or System: human alpha1 nicotinic acetylcholine (nACh) receptor (Homo sapiens, UniProt P02708+Q07001)
Reported Measurement: 29

Structure Smiles: CO[C@@H]1COCC[C@@H]1N[C@@H]1CC[C@](CCC2CCN(C(=O)[C@H]3CC[C@H](NC(=O)CCCO[C@H]4CC[C@H](OCCNC(=O)[C@H]5CC(=O)N(C)[C@@H]5c5cccnc5)CC4)CC3)CC2)(C(=O)N2CCc3ncc(C(F)(F)F)cc3C2)C1
Target Or System: human alpha1 nicotinic acetylcholine (nACh) receptor (Homo sapiens, UniProt P02708+Q07001)
Reported Measurement: 40

Moving on to the next compound.
Reported Emax at 100 µM for CO[C@@H]1COCC[C@@H]1N[C@@H]1CC[C@@](C(=O)N2Cc3cc(C(F)(F)F)cnc3[C@H](NC(=O)[C@H]3CC[C@H](NC(=O)CCCO[C@H]4CC[C@H](OCCNC(=O)[C@H]5CC(=O)N(C)[C@@H]5c5cccnc5)CC4)CC3)C2)(C(C)C)C1 was 38

* * *

Target: CHOK1 cells engineered to overexpress human CCR2 (Homo sapiens, UniProt P41597)
Construct: expressed in transfected cells; host or cells: CHOK1
Experiment: Antibody Dependent Cellular Cytotoxicity (ADCC) Reporter Assay
Assay type: cell-based
Settings: with anti-cotinine antibody (human IgG1 Fc, S239D/I332E); Jurkat FcγRIIIa NFAT-luciferase reporter cells; average if several runs; read-out: ADCC Reporter Assay pEC50 (converted)
Method: […] ARMs compounds of Formula (I) of the invention were tested for ADCC activity in the above assay in or more experimental runs and the results are shown in Table 3 below. […] The pEC50 value is the negative log of the EC50 value, wherein the EC50 value is the half maximal effective concentration measured in molar (M). […]
Where a name gives a salt, the structure may show the parent alone.
Exercise: for every item that follows, state its recorded EC50.
Numbers only, in nM.

Molecule: CO[C@@H]1COCC[C@@H]1N[C@@H]1CC[C@](CCC2CCN(C(=O)[C@H]3CC[C@H](NC(=O)CCCO[C@H]4CC[C@H](OCCNC(=O)[C@H]5CC(=O)N(C)[C@@H]5c5cccnc5)CC4)CC3)CC2)(C(=O)N2CCc3ncc(C(F)(F)F)cc3C2)C1
EC50 (nM): 12.6
--
Molecule: CO[C@@H]1COCC[C@@H]1N[C@@H]1CC[C@](CCCCNC(=O)[C@H]2CC[C@H](NC(=O)CCCO[C@H]3CC[C@@H](OCCNC(=O)[C@H]4CC(=O)N(C)[C@@H]4c4cccnc4)CC3)CC2)(C(=O)N2CCc3ncc(C(F)(F)F)cc3C2)C1
EC50 (nM): 1.26
--
Molecule: CO[C@@H]1COCC[C@@H]1N[C@@H]1CC[C@](CCCCCNC(=O)[C@H]2CC[C@H](NC(=O)CCCO[C@H]3CC[C@H](OCCNC(=O)[C@H]4CC(=O)N(C)[C@@H]4c4cccnc4)CC3)CC2)(C(=O)N2CCc3ncc(C(F)(F)F)cc3C2)C1
EC50 (nM): 1.26

Moving on to the next molecule.
Reported EC50 for CO[C@@H]1COCC[C@@H]1N[C@@H]1CC[C@](CCCCNC(=O)[C@H]2CC[C@@H](NC(=O)CCOCCOCCOCCNC(=O)[C@H]3CC(=O)N(C)[C@@H]3c3cccnc3)CC2)(C(=O)N2CCc3ncc(C(F)(F)F)cc3C2)C1 [Example 18, Formic acid salt] was 5.01

* * *

Exercise: for every item that follows, state its recorded pKd of Antibody for ARM Compound of Formula (I).
Molecular target: Anti-cotinine antibody (SEQ ID NO: 11 / SEQ ID NO: 12)
Experiment: Binding of Anti-Cotinine Antibody to ARM Compounds measured by Surface Plasmon Resonance (SPR)
Set-up: species or system rabbit variable region with human IgG1 Fc domain
Conditions: Biacore T200, 37° C., Kd = koff/kon, average if several runs
Excerpt: Anti-cotinine antibodies having a heavy chain sequence of SEQ ID NO: 11 and a light chain sequence of SEQ ID NO: 12 (rabbit variable region with human IgG1 Fc domain containing a DE mutation (S239D/I332E)) were captured on one or more flow cells of a protein A sensor chip (Cytiva) using a Biacore T200 while reserving flow cell 1 as a reference. […] The experiment was run using Biacore T200 control software and evaluated using Biacore T200 Evaluation software. […]

Consider the following illustrative entries.
Structure Smiles: CO[C@@H]1COCC[C@@H]1N[C@@H]1CC[C@](CCCCCNC(=O)[C@H]2CC[C@H](NC(=O)CCCO[C@H]3CC[C@H](OCCNC(=O)[C@H]4CC(=O)N(C)[C@@H]4c4cccnc4)CC3)CC2)(C(=O)N2CCc3ncc(C(F)(F)F)cc3C2)C1
Target Or System: Anti-cotinine antibody (SEQ ID NO: 11 / SEQ ID NO: 12)
Reported Measurement: 9.2

Structure Smiles: CO[C@@H]1COCC[C@@H]1N[C@@H]1CC[C@](CCCCNC(=O)[C@H]2CC[C@H](NC(=O)CCCO[C@H]3CC[C@H](OCCNC(=O)[C@H]4CC(=O)N(C)[C@@H]4c4cccnc4)CC3)CC2)(C(=O)N2CCc3ncc(C(F)(F)F)cc3C2)C1
Target Or System: Anti-cotinine antibody (SEQ ID NO: 11 / SEQ ID NO: 12)
Reported Measurement: 9.2

Structure Smiles: CO[C@@H]1COCC[C@@H]1N[C@@H]1CC[C@@](C(=O)N2Cc3cc(C(F)(F)F)cnc3[C@@H](NC(=O)[C@H]3CC[C@H](NC(=O)CCCO[C@H]4CC[C@H](OCCNC(=O)[C@H]5CC(=O)N(C)[C@@H]5c5cccnc5)CC4)CC3)C2)(C(C)C)C1
Target Or System: Anti-cotinine antibody (SEQ ID NO: 11 / SEQ ID NO: 12)
Reported Measurement: 9.0

Structure Smiles: CO[C@@H]1COCC[C@@H]1N[C@@H]1CC[C@](CCCNC(=O)[C@H]2CC[C@H](NC(=O)CCCO[C@H]3CC[C@H](OCCNC(=O)[C@H]4CC(=O)N(C)[C@@H]4c4cccnc4)CC3)CC2)(C(=O)N2CCc3ncc(C(F)(F)F)cc3C2)C1
Target Or System: Anti-cotinine antibody (SEQ ID NO: 11 / SEQ ID NO: 12)
Reported Measurement: 9.1

Structure Smiles: CO[C@@H]1COCC[C@@H]1N[C@@H]1CC[C@](CCC2CCN(C(=O)[C@H]3CC[C@H](NC(=O)CCCO[C@H]4CC[C@H](OCCNC(=O)[C@H]5CC(=O)N(C)[C@@H]5c5cccnc5)CC4)CC3)CC2)(C(=O)N2CCc3ncc(C(F)(F)F)cc3C2)C1
Target Or System: Anti-cotinine antibody (SEQ ID NO: 11 / SEQ ID NO: 12)
Reported Measurement: 9.2

Please give pKd of Antibody for ARM Compound of Formula (I) for each item listed below.
1. CO[C@@H]1COCC[C@@H]1N[C@@H]1CC[C@@](C(=O)N2Cc3cc(C(F)(F)F)cnc3[C@H](NC(=O)[C@H]3CC[C@H](NC(=O)CCCO[C@H]4CC[C@H](OCCNC(=O)[C@H]5CC(=O)N(C)[C@@H]5c5cccnc5)CC4)CC3)C2)(C(C)C)C1
2. CO[C@@H]1COCC[C@@H]1N[C@@H]1CC[C@](CCNC(=O)[C@H]2CC[C@H](NC(=O)CCCO[C@H]3CC[C@H](OCCNC(=O)[C@H]4CC(=O)N(C)[C@@H]4c4cccnc4)CC3)CC2)(C(=O)N2CCc3ncc(C(F)(F)F)cc3C2)C1
3. CO[C@@H]1COCC[C@@H]1N[C@@H]1CC[C@@](C(=O)N2CCc3nc(CCCCOc4cccc(C(=O)NCCOCCOCCOCCOCCOCCOCCOCCOCCOCCNC(=O)[C@H]5CC(=O)N(C)[C@@H]5c5cccnc5)c4)c(C(F)(F)F)cc3C2)(C(C)C)C1

1: 9.0; 2: 9.1; 3: 9.3
